The measurements presented in this section are drawn from patent US20090030024A1.

Experiment: logP determination by retention times (calibration with alkan-2-ones)
Below, each entry is listed alongside its reported chromatographic logP.
Please respond with just the number, no unit label.

Cc1nc(NCC2CCCO2)sc1-c1ccnc(Nc2cccc([N+](=O)[O-])c2)n1 (stereo not shown) [Example 355] :: 2.13

Query :: Which value of chromatographic logP has been reported for COc1ccc(Nc2nccc(-c3sc(C4CC4)nc3C)n2)cn1 [Example 228] in the records?
Result :: 2.53

Query :: // next record CCc1nc(C)c(-c2ccnc(Nc3cccc(OC)c3)n2)s1 [Example 236]
Result :: 3

Query :: // next record Cc1nc(C)c(-c2ccnc(Nc3ccc(O)cc3)n2)s1 [Example 321]
Result :: 1.62

Query :: // next record COc1cc(Nc2nccc(-c3sc(C4CCCCC4)nc3C)n2)cc(OC)c1OC [Example 215]
Result :: 3.97

Query :: // next record Cc1nc(C(F)(F)F)c(-c2ccnc(Nc3ccccc3)n2)s1 [Example 312]
Result :: 3.45

Query :: // next record CCc1nc(C)c(-c2ccnc(Nc3cc(OC)c(OC)c(OC)c3)n2)s1 [Example 235]
Result :: 2.61

###

Assay: logP determination by retention times (calibration with alkan-2-ones)
Settings: * HPLC reversed-phase C18, 40° C., mobile phase 0.1% aqueous formic acid and acetonitrile, linear gradient 10% to 95% acetonitrile
Below, each entry is listed alongside its reported logP.

CN(C)c1nc(C(F)(F)F)c(-c2ccnc(Nc3ccc(I)cc3)n2)s1 :: 4.88*
CNc1nc(C)c(-c2ccnc(Nc3ccc(O)cc3)n2)s1 :: 1.11*
CN(C)c1nc(C(F)(F)F)c(-c2ccnc(Nc3ccc(N4CCCC4=O)cc3)n2)s1 :: 2.99*
COc1ccc(Nc2nccc(-c3sc(N(C)C)nc3C(F)(F)F)n2)cn1 :: 3.17*

Query :: Which value of logP has been reported for CN(C)c1nc(C(F)(F)F)c(-c2ccnc(Nc3cccc(N4CCCC4=O)c3)n2)s1 in the records?
Result :: 3.07*

###

System: Phytophthora infestans
Experiment: whole plant or invertebrate
Type: in vivo
Details: in Solanum lycopersicum, 168 h, read-out: efficacy
Below, each entry is listed alongside its reported pest or weed control at 500 ppm.

Query :: Missing value: pest or weed control at 500 ppm, Phytophthora infestans, entry CCc1nc(C)c(-c2ccnc(Nc3ccc(NC(=O)OCCOC)cc3)n2)s1 [Example 73] . Fill in?
Result :: ≥ 70%

Query :: // next record Cc1nc(C)c(-c2ccnc(Nc3ccc(F)cc3)n2)s1 [Example 186]
Result :: ≥ 70%

Query :: // next record Cc1nc(C(C)C)sc1-c1ccnc(Nc2ccc(O)cc2)n1 [Example 329]
Result :: ≥ 70%

Query :: // next record COCCOC(=O)Nc1ccc(Nc2nccc(-c3sc(N)nc3C)n2)cc1 [Example 69]
Result :: ≥ 70%

Query :: // next record CCc1nc(C)c(-c2ccnc(Nc3cc(OC)c(OC)c(OC)c3)n2)s1 [Example 235]
Result :: ≥ 70%

Query :: // next record CCc1nc(C)c(-c2ccnc(Nc3ccc(O)cc3)n2)s1 [Example 327]
Result :: ≥ 70%

Query :: // next record Cc1nc(C)c(-c2ccnc(Nc3ccc(O)cc3)n2)s1 [Example 321]
Result :: ≥ 70%

Query :: // next record CCc1nc(C)c(-c2ccnc(Nc3ccc(F)cc3)n2)s1 [Example 239]
Result :: ≥ 70%

Query :: // next record CCc1nc(C)c(-c2ccnc(Nc3ccc(NC(C)=O)cc3)n2)s1 [Example 460]
Result :: ≥ 70%
